test method notes: qHTS assay to identify small molecule antagonists of the sonic hedgehog signaling (Shh) pathway - cell viability counter screen (AID 1259367); note: nearly all actives have a fitted effect of over 55% in size
condition info: NIH/3T3 Gli1-Luc viability, CellTiter-Fluor, 24 h; series mostly up to 92.4 µM
Inconclusive results are not listed. Activity calls are given as the source filed them. Calls come from the whole dose curve; as a rule, active = well fitted cell-killing curve with a large enough effect in the repeat runs; inconclusive = weak or mixed curves, or effect the other way; inactive = no such curve, though single readings can be large or run the other way.
One label from this list, please: 1 for active, 0 for inactive

Observe how each entry below is paired with its result.
O=[N+]([O-])c1ccc(Cl)c(Cl)c1Cl :: 0
C[C@]12C/C(=C/O)C(=O)C[C@@H]1CC[C@@H]1[C@@H]2CC[C@@]2(C)[C@H]1CC[C@]2(C)O :: 1
Cc1ccc([N+](=O)[O-])[c]2c1[O][Hg]2 :: 1
C[C@]12CC[C@H]3[C@@H](CCC4=CC(=O)CC[C@@H]43)[C@@H]1CC[C@@H]2OC(=O)CCc1ccco1 :: 0
CC1(C)[C@H](/C=C2\CCSC2=O)[C@@H]1C(=O)OCc1coc(Cc2ccccc2)c1 :: 0
Cc1cccc(Cc2cnc[nH]2)c1C :: 0
CN1CCc2cc(Cl)c(O)cc2[C@H]2c3ccccc3CC[C@@H]21 :: 1
O=[N+]([O-])c1ccc(CCl)cc1 :: 0

Exercise: // return assay outcome for CNC(=O)/C=C(\C)OP(=O)(OC)OC
Key: 0

Exercise: Could you check what this test reported for Cc1c([N+](=O)[O-])c(C)c([N+](=O)[O-])c(C(C)(C)C)c1[N+](=O)[O-] ?
Key: 0

----------
tested target: Progesterone receptor (Homo sapiens)
test method notes: qHTS assay to identify small molecule antagonists of the progesterone receptor (PR) signaling pathway (AID 1346795); note: potency is the fitted concentration of half-maximal effect
condition info: PR-UAS-bla HEK293T, beta-lactamase FRET ratio, 16 h; series mostly up to 92.4 µM
Results filed as inconclusive are left out. Activity calls are given as the source filed them. The call rests on the fitted dose curve; in most records, active means well fitted inhibition curve with a large enough effect in the signal ratio in the repeat runs (not every such curve was filed as active); inconclusive means weak or mixed curves; inactive means flat fitted curve, though single readings scatter; the % refers to the signal ratio.
parameter: Potency

Below: 4 compounds and their reported Potency.
CCCCN(CCCC)C(=S)S :: inactive
Brc1cccc(-c2ccccc2)c1 :: inactive
CN(C)C(=S)SSC(=S)N(C)C :: 0.135 µM (active)
S=C=Nc1ccccc1 :: inactive

For the 5 compounds below, give their Potency values.
1. COc1ccc(Cc2nccc3cc(OC)c(OC)cc23)cc1OC
2. C=Cc1cccc(CCl)c1
3. CCCCCON=O
4. [Cl-].[Cl-].[Cl-].[Yb+3]
5. CNC(C)(C)Cc1ccccc1

Key:
["inactive", "inactive", "inactive", "inactive", "inactive"]

----------
test method notes: qHTS assay to identify small molecule agonists of the farnesoid-X-receptor (FXR) signaling pathway - cell viability counter screen (AID 743218); note: nearly all actives have a fitted effect of over 45% in size
condition info: FXR-bla HEK293T viability, CellTiter-Glo luminescence, 16 h; series mostly up to 62.6 µM
Results filed as inconclusive are left out. Active and inactive are the calls of the source. The call rests on the fitted dose curve; in most records, active means well fitted cell-killing curve with a large enough effect in the repeat runs; inconclusive means weak or mixed curves, or effect the other way; inactive means no such curve, though single readings can be large or run the other way.
In this exercise, the only acceptable responses are true (active), false (inactive)

These recorded examples may help you get a feel for the data.
CSC(=O)c1c(C(F)F)nc(C(F)(F)F)c(C(=O)SC)c1CC(C)C :: false
Brc1cccc(-c2ccccc2)c1 :: false
CC(Cc1ccc(OCC(=O)O)cc1)NCC(O)c1csc(C(F)(F)F)n1 (centres undefined) :: false
BrCC(Br)(Br)Br :: false
[F][Sn]([c]1ccccc1)([c]1ccccc1)[c]1ccccc1 :: true
CN1[C@@H]2CC[C@H]1CC(O)C2 (some centres undefined) :: false

Exercise: Check the results log: what was the call for ClC1=C(Cl)[C@]2(Cl)[C@@H]3[C@H]4C[C@H]([C@@H]5O[C@H]45)[C@@H]3[C@@]1(Cl)C2(Cl)Cl ?
Key: false

Exercise: Recorded call for O=C(Cl)c1ccccc1F ?
Key: false

Reference for the values: PubChem BioAssay (Tox21)
